The reported numbers originate from patent US8536354B2.

biological target: VgEcR/RXR (Drosophila melanogaster, UniProt P34021, E282G/G283S/G286V); conditions: VgEcR/RXR system
Sequence (P34021 whole entry E282G/G283S/G286V): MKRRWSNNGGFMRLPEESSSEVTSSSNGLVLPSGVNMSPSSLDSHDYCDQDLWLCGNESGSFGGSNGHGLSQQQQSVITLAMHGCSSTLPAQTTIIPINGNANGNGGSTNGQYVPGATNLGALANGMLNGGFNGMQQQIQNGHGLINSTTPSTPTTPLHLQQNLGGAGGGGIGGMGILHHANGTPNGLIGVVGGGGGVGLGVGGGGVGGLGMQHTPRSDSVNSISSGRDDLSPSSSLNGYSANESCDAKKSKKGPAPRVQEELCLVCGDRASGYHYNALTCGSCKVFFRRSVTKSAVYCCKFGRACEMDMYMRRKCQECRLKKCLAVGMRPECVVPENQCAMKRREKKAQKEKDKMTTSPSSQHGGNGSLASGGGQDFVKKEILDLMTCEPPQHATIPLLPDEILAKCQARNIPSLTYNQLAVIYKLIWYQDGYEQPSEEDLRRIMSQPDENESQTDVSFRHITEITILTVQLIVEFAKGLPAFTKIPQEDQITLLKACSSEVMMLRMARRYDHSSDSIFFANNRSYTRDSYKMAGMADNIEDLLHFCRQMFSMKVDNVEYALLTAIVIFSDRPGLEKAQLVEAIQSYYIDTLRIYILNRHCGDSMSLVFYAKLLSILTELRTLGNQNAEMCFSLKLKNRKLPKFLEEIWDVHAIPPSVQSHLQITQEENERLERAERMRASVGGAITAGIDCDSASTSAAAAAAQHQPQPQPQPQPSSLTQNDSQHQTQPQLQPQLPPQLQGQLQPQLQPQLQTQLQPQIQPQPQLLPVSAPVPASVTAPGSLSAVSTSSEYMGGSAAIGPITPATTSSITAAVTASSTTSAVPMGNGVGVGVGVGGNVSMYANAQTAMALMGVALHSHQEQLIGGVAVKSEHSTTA
Sequence (P19793 whole entry, further chain): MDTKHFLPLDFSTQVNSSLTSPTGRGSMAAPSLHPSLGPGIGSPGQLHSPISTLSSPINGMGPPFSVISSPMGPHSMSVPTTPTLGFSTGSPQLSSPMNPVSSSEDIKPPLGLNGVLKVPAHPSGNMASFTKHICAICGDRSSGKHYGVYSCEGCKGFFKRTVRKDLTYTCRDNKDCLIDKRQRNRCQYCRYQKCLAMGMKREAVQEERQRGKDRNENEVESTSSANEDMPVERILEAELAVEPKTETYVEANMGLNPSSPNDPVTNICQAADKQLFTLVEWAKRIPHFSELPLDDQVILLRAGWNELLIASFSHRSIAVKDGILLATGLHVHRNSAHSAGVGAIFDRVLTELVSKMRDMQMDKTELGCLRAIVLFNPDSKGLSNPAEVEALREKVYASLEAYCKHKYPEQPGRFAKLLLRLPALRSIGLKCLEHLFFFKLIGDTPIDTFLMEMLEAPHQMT
measurement name: EC50 (nM)
I only need the number, in nM, no unit after it.

# input Suppose we examine the molecule CC(C)CC[C@@H](O)[C@](C)(O)[C@H]1CC[C@@]2(O)C3=CC(=O)[C@]4(O)C[C@@H](O)[C@@H](O)C[C@]4(C)[C@H]3[C@H](O)C[C@]12C ; what EC50 value has been reported?
# output 851

====

Recorded EC50 for the following compounds
Target: Manduca sexta EcR (MsEcR) (Manduca sexta, UniProt P49883)
Sequence (P49883 293-531 limits assumed): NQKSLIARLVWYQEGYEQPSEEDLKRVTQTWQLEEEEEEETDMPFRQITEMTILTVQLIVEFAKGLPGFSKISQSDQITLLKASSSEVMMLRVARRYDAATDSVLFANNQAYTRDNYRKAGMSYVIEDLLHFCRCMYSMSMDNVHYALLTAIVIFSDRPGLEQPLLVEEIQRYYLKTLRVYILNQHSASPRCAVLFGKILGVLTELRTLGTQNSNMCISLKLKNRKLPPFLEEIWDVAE
Experiment: Two-hybrid gene switch assay, MsEcR-CDEF in NIH3T3 cells

# example entries with known answers
compound | EC50
CO[C@H](CCC(C)(C)O)[C@](C)(O)C1CC[C@@]2(O)C3=CC(=O)C4C[C@@H](O)[C@@H](O)CC4(C)C3CCC12C (some centres unmarked) [20E-22-methyl ether] | ~10 µM
CO[C@@H]1C[C@H]2C(=O)C=C3[C@H](CC[C@]4(C)[C@@H]([C@@](C)(O)[C@H](O)CCC(C)(C)O)CC[C@@]34O)[C@@]2(C)C[C@@H]1O [20E-3-methyl ether] | ~10 µM
CO[C@@H]1C[C@H]2C(=O)C=C3[C@H](CC[C@]4(C)[C@@H]([C@@](C)(O)[C@@H](CCC(C)(C)O)OC)CC[C@@]34O)[C@@]2(C)C[C@@H]1O [20E-3,22-dimethyl ether] | ~10 µM
CO[C@H]1C[C@@]2(C)[C@@H](C[C@H]1O)C(=O)C=C1[C@@H]2CC[C@]2(C)[C@@H]([C@@](C)(O)[C@@H](CCC(C)(C)O)OC)CC[C@@]12O [20E-2,22-dimethyl ether] | ~20 µM

# input Please tell me: EC50 of CO[C@H]1C[C@@]2(C)[C@@H](C[C@H]1O)C(=O)C=C1[C@@H]2CC[C@]2(C)[C@@H]([C@@](C)(O)[C@H](O)CCC(C)(C)O)CC[C@@]12O [20E-2-methyl ether] , system Manduca sexta EcR (MsEcR) (Manduca sexta, UniProt P49883)?
# output ~20 µM
